Molecular target: CYP2D6 (Homo sapiens, UniProt P10635)
Sequence (P10635 whole entry): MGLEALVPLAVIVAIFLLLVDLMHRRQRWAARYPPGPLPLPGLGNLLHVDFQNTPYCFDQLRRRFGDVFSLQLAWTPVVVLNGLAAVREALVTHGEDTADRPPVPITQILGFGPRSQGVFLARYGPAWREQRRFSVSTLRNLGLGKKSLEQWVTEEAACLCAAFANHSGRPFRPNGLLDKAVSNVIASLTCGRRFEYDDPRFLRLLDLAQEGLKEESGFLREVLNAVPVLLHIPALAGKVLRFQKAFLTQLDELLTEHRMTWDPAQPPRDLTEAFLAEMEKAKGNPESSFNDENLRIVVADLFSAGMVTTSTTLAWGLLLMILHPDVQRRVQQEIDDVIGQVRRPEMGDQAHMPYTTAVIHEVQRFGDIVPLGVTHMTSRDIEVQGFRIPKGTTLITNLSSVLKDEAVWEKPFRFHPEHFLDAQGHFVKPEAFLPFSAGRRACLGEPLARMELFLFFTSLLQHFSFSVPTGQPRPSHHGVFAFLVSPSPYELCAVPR
Experiment: P450-Glo CYP2D6 inhibition assay (bioluminescence-based; pre-screen at 100 µM and IC50 determination)
Conditions: ranked by IC50; inactives from pre-screen at 100 µM
endpoint-name: classification of CYP2D6 inhibition (actives / weak actives / inactives)

{"compound-structure": "COC(=O)C1=CO[C@@H](C)[C@@H]2CN3CC[C@]4(C(=O)Nc5ccccc54)[C@@H]3C[C@H]12", "result": "weak actives"}
{"compound-structure": "O=C(O)c1ccccc1-n1ccc2c([nH]c3ccccc32)c1=O", "result": "weak actives"}

====

Answer each item with its documented P450-Glo Detection Reaction MEAN (total luminescence).
Test system: P450-Glo detection reaction (unspecific esterase and modified firefly-luciferase)
Assay: P450-Glo detection reaction control (luciferin-EGE, esterase, luciferase, test compound, no CYP2D6)
Conditions: 50 µM test compound, no CYP2D6, DMSO control = 100
# number only, unit % TL dropped from output

Query: Give recorded P450-Glo Detection Reaction MEAN (total luminescence) with P450-Glo detection reaction (unspecific esterase and modified firefly-luciferase) for the following compound: CC[C@]12C=CCN3CC[C@]4(C(=C(C(=O)OC)C1)Nc1ccccc14)[C@@H]32 [Compound 22, Tabersonine]
Result: 104.20

Query: For the record COC(=O)N1c2ccccc2C23C4CN5CCCC6(CCC12C(O)(C6)C4=O)C53 (single isomer, unassigned; (-)) [Compound 16, (-)-Kopsine] , what value of P450-Glo Detection Reaction MEAN (total luminescence) is listed for P450-Glo detection reaction (unspecific esterase and modified firefly-luciferase)?
Result: 89.70

Query: API: value(readout=P450-Glo Detection Reaction MEAN (total luminescence), system=P450-Glo detection reaction (unspecific esterase and modified firefly-luciferase)) for record COc1cc2c(cc1OC)C1Cc3cc(O)c(O)cc3CN1CC2 (stereo not drawn) [Compound 14, Spinosine]
Result: 95.27

Query: Kindly state the measured P450-Glo Detection Reaction MEAN (total luminescence) obtained for CCC1=CC2CN3CCc4c([nH]c5ccccc45)C(C(=O)OC)(C2)C13 (single isomer, unassigned; (+)) [Compound 7, (+)-Catharanthine] with P450-Glo detection reaction (unspecific esterase and modified firefly-luciferase).
Result: 93.59

Query: Item CC=C1C2CCN3CCC4(C(=C2C(=O)OC)Nc2ccccc24)C13 (single isomer, unassigned; (+)) [Compound 17, (+)-Condylocarpine] with P450-Glo detection reaction (unspecific esterase and modified firefly-luciferase) - P450-Glo Detection Reaction MEAN (total luminescence)?
Result: 92.66

Query: Query P450-Glo Detection Reaction MEAN (total luminescence) on P450-Glo detection reaction (unspecific esterase and modified firefly-luciferase) for COC(=O)C1=CO[C@@H](C)[C@@H]2CN3CC[C@]4(C(=O)Nc5ccccc54)[C@@H]3C[C@H]12 [Compound 1, Pteropodine]
Result: 92.50

====

Test system: P450-Glo detection reaction (unspecific esterase and modified firefly-luciferase)
Assay: P450-Glo detection reaction control (luciferin-EGE, esterase, luciferase, test compound, no CYP2D6)
Settings: 50 µM; one-way ANOVA, Dunnett's test vs DMSO control
endpoint-name: p < 0.05 (significant inhibition of the P450-Glo detection reaction)

// known answers, use as guide
{"compound": "COC(=O)C1=CO[C@@H](C)[C@@H]2CN3CC[C@]4(C(=O)Nc5ccccc54)[C@@H]3C[C@H]12", "result": "Yes"}
{"compound": "COC(=O)C1CC23C=CCN4CCC5(c6ccccc6NC15CC2)C43 (single isomer, unassigned; (-)) [Compound 10, (-)-Venalstonine]", "result": "No"}
{"compound": "COC1=C[C@]23CCN(C)[C@H](Cc4ccc(OC)c(O)c42)C3=CC1=O [Compound 20, (+)-Salutaridine]", "result": "No"}
{"compound": "COc1ccc2c(c1OC)CN1CCc3cc4c(cc3C1C2C)OCO4 (stereo not shown)", "result": "Yes"}
{"compound": "CCC1=CC2CN3CCc4c([nH]c5ccccc45)C(C(=O)OC)(C2)C13 (single isomer, unassigned; (+)) [Compound 7, (+)-Catharanthine]", "result": "Yes"}

Query: Return p < 0.05 (significant inhibition of the P450-Glo detection reaction) measured with P450-Glo detection reaction (unspecific esterase and modified firefly-luciferase) given this compound: COc1ccc(C[C@H]2c3cc(OC)c(OC)cc3CCN2C)cc1O [Compound 11, (+)-Laudanidine]
Result: Yes

Query: # query: p < 0.05 (significant inhibition of the P450-Glo detection reaction) | item CC[C@]12C=CCN3CC[C@]4(C(=C(C(=O)OC)C1)Nc1ccccc14)[C@@H]32 | system: P450-Glo detection reaction (unspecific esterase and modified firefly-luciferase)
Result: Yes

Query: # query: p < 0.05 (significant inhibition of the P450-Glo detection reaction) | item COc1ccc(/C=C\c2cc(OC)c(OC)cc2CCN(C)C)cc1 | system: P450-Glo detection reaction (unspecific esterase and modified firefly-luciferase)
Result: Yes

Cited source: paper PMC5556109
